- protocol-text: Mouse PK: 2'-C-methylguanosine triphosphate levels in liver
- condition-notes: 2'-C-methylguanosine triphosphate in mouse liver, 50 mg/kg PO
endpoint-name: AUC0-6 (ng·h/g)
Numeric only. Scale: ng·h/g

compound: C[C@H](NP(=O)(OC[C@H]1OC(n2cnc3c(=O)[nH]c(N)nc32)[C@](C)(O)[C@@H]1O)Oc1cccc2ccccc12)C(=O)O[C@@H](C)c1ccccc1 (stereo partly drawn) [G, reference compound]
units: ng·h/g
experimental-value: 6977

compound: COc1nc(N)nc2c1ncn2[C@@H]1O[C@H](CO)[C@@H](O)[C@@]1(C)O
units: ng·h/g
experimental-value: 8748

compound: CC(C)[C@H](NP(=O)(OC[C@H]1OC(n2cnc3c(=O)[nH]c(N)nc32)[C@](C)(O)[C@@H]1O)Oc1cccc2ccccc12)C(=O)OCc1ccccc1 (stereo partly drawn) [M, reference compound]
units: ng·h/g
experimental-value: 1937

compound: C[C@H](NP(=O)(OC[C@H]1OC(n2cnc3c(=O)[nH]c(N)nc32)[C@](C)(O)[C@@H]1O)Oc1cccc2ccccc12)C(=O)OCC(C)(C)C (stereo partly drawn) [A, reference compound]
units: ng·h/g
experimental-value: 1584

compound: COc1nc(N)nc2c1ncn2C1O[C@H](COP(=O)(N[C@H](C(=O)OCC(C)(C)C)C(C)C)Oc2cccc3ccccc23)[C@@H](O)[C@@]1(C)O (stereo partly drawn)
units: ng·h/g
experimental-value: 1540

// below: AUC0-6 requested for another compound
Please report AUC0-6 for the following compound: COc1nc(N)nc2c1ncn2C1O[C@H](COP(=O)(N[C@@H](C)C(=O)OCC(C)(C)C)Oc2cccc3ccccc23)[C@@H](O)[C@@]1(C)O (stereo partly drawn)
31940

====

- System: Huh7 replicon cells
- protocol-text: Cytotoxicity assay (CellTiter-Glo)
- condition-notes: read-out: CC50 μM; 72 h, CellTiter-Glo
endpoint-name: CC50

Answer briefly: CC50 recorded on Huh7 replicon cells for COc1nc(N)nc2c1ncn2[C@@H]1O[C@H](CO)[C@@H](O)[C@@]1(C)O [Example 2]
> 100 µM

====

- Tested on: HCV replicon (Genotype 1b)
- protocol-text: Luciferase genotype 1b replicon potency assay
- condition-notes: Hepatitis C virus, GETYPE1B, read-out: IC50 μM, HCV genotype 1b luciferase replicon, Renilla luciferase reporter
endpoint-name: IC50 (µM)
Numeric only. Scale: µM

Some molecules with recorded IC50:
molecule: CSc1nc(N)nc2c1ncn2C1O[C@H](COP(=O)(N[C@@H](C)C(=O)O[C@@H](C)c2ccccc2)Oc2cccc3ccccc23)[C@@H](O)[C@@]1(C)O (stereo partly shown)
units: µM
IC50: 0.14
//
molecule: COc1nc(N)nc2c1ncn2C1O[C@H](COP(=O)(N[C@H](C(=O)OCC(C)(C)C)C(C)C)Oc2c(C)ccc3ccccc23)[C@@H](O)[C@@]1(C)O (stereo partly shown)
units: µM
IC50: 1.5

Answer briefly: IC50 recorded on HCV replicon (Genotype 1b) for COc1nc(N)nc2c1ncn2C1O[C@H](COP(=O)(N[C@@H](CCSC)C(=O)OCC(C)(C)C)Oc2cccc3ccccc23)[C@@H](O)[C@@]1(C)O (stereo partly shown)
0.06

====

Below, each entry is listed alongside its reported % Compound Remaining Compared to %100 Acetonitrile Control.
- protocol-text: Protide stability in normal plasma, cynomolgous monkey
- Type: in vitro ADME
- condition-notes: 37° C., 1.5 h
Numeric only. Scale: %

Please report % Compound Remaining Compared to %100 Acetonitrile Control for the following molecule: COc1nc(N)nc2c1ncn2C1O[C@H](COP(=O)(N[C@H](C(=O)OCC(C)(C)C)C(C)C)Oc2cccc3ccccc23)[C@@H](O)[C@@]1(C)O (some centres unmarked)
82.5

Please report % Compound Remaining Compared to %100 Acetonitrile Control for the following molecule: COc1nc(N)nc2c1ncn2C1O[C@H](COP(=O)(N[C@H](C(=O)OCc2ccccc2)C(C)C)Oc2cccc3ccccc23)[C@@H](O)[C@@]1(C)O (some centres unmarked)
96

Please report % Compound Remaining Compared to %100 Acetonitrile Control for the following molecule: CC(C)[C@H](NP(=O)(OC[C@H]1OC(n2cnc3c(=O)[nH]c(N)nc32)[C@](C)(O)[C@@H]1O)Oc1cccc2ccccc12)C(=O)OCC(C)(C)C (some centres unmarked) [B, reference compound]
84.9
